- TARGET_ENTITY: P2X purinoceptor 7 (Homo sapiens, UniProt Q99572)
- Sequence (Q99572 whole entry): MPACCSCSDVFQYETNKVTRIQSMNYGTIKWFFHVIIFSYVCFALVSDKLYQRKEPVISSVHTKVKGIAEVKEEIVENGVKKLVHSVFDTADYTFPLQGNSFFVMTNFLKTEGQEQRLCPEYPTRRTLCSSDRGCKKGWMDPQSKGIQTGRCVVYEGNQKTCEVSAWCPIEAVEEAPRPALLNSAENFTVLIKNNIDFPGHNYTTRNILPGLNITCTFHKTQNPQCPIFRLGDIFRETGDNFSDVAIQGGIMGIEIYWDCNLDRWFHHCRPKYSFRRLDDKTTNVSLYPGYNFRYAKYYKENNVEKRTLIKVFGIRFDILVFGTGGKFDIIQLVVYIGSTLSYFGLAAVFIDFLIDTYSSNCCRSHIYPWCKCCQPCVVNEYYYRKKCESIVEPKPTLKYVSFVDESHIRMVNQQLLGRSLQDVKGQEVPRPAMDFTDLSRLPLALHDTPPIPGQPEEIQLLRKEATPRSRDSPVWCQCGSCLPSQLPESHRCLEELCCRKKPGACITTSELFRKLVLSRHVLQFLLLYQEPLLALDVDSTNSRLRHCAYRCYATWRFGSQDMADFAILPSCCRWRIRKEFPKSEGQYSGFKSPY
- EXPERIMENTAL_PROTOCOL: Antagonist activity at human recombinant P2X7 receptor assessed as inhibition of calcium flux by FLIPR assay
PROPERTY_MEASURED: IC50 (nM)

COMPOUND: Cc1ccn(CC(=O)N2CCN(/C(=N/C#N)Nc3ccccc3C)CC2c2ccccc2)n1 (centres undefined)
IC50, nM: 40
//
COMPOUND: COc1ccc(CCCC(=O)N2CCN(/C(=N/C#N)Nc3ccccc3C)CC2c2ccccc2)cc1OC (centres undefined)
IC50, nM: 70
//
COMPOUND: Cc1ccccc1N/C(=N\C#N)N1CCN(C(=O)Cc2cccnc2)C(c2ccccc2)C1 (centres undefined)
IC50, nM: 40
//
COMPOUND: COc1ccc(CCC(=O)N2CCN(/C(=N/C#N)Nc3ccccc3C)CC2c2ccccc2)cc1OC (centres undefined)
IC50, nM: 57
//
COMPOUND: Cc1ccccc1N/C(=N\C#N)N1CCN(C(=O)Cc2ccsc2)C(c2ccccc2)C1 (centres undefined)
IC50, nM: 71

a. COc1ccc(CC(=O)N2CCN(C(=Nc3ccccc3C)NC#N)C(c3ccccc3)C2)cc1OC (centres undefined)
b. COc1ccc(CC(=O)N2CCN(C(=Nc3ccccc3C)NC#N)[C@H](CC(C)C)C2)cc1OC
c. Cc1ccccc1N/C(=N\C#N)N1CCN(C(=O)Cc2c[nH]cn2)C(c2ccccc2)C1 (centres undefined)
d. COc1ccc(CC(=O)NC(NC(=NC#N)Nc2ccccc2C)C(C)(C)C)cc1OC (centres undefined)
IN: Order the records by IC50, with each subsequent value no larger than the one before. When ranking, write the labels in the order the request describes.
OUT: c, b, d, a
(c: 1000 nM, b: 430 nM, d: 120 nM, a: 51 nM)

---

- TARGET_ENTITY: P2X purinoceptor 7 (Rattus norvegicus, UniProt Q64663)
- Sequence (Q64663 whole entry): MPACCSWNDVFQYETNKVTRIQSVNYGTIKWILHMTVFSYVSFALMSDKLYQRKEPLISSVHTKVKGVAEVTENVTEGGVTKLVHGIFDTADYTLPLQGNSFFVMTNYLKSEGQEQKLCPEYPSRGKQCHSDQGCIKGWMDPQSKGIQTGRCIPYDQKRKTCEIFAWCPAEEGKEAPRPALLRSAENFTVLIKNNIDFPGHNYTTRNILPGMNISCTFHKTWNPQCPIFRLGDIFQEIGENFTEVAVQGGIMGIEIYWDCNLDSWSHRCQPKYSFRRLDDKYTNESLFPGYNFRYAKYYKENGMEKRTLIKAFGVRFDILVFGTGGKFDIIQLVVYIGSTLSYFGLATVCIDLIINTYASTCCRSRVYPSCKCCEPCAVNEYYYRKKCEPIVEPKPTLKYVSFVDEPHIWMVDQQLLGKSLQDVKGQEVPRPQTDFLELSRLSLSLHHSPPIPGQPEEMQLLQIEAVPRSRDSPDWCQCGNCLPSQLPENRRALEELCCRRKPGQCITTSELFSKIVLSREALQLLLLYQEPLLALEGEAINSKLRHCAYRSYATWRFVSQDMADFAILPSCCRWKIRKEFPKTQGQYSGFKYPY
- EXPERIMENTAL_PROTOCOL: Antagonist activity at rat recombinant P2X7 receptor assessed as inhibition of calcium flux by FLIPR assay
PROPERTY_MEASURED: IC50 (nM)

Solved cases below.
MOLECULE: Cc1ccccc1N/C(=N\C#N)N1CCN(C(=O)Cc2cccs2)C(c2ccccc2)C1 (centres undefined)
TARGET_ENTITY: P2X purinoceptor 7 (Rattus norvegicus, UniProt Q64663)
PROPERTY_MEASURED: IC50
MEAS_VALUE: 150
//
MOLECULE: Cc1ccccc1N=C(NC#N)N1CCN(C(=O)Cc2ccncc2)C(c2ccccc2)C1 (centres undefined)
TARGET_ENTITY: P2X purinoceptor 7 (Rattus norvegicus, UniProt Q64663)
PROPERTY_MEASURED: IC50
MEAS_VALUE: 150
//
MOLECULE: Cc1ccccc1N=C(NC#N)N1CCN(C(=O)Cc2ccco2)C(c2ccccc2)C1 (centres undefined)
TARGET_ENTITY: P2X purinoceptor 7 (Rattus norvegicus, UniProt Q64663)
PROPERTY_MEASURED: IC50
MEAS_VALUE: 520

1. COc1ccc(CCC(=O)N2CCN(/C(=N/C#N)Nc3ccccc3C)CC2c2ccccc2)cc1OC (centres undefined)
2. Cc1ccccc1N/C(=N\C#N)N1CCN(C(=O)Cc2cccnc2)C(c2ccccc2)C1 (centres undefined)
3. COc1ccc(CC(=O)N2CCN(C(=Nc3ccccc3C)NC#N)[C@H](CC(C)C)C2)cc1OC
IN: Falling order of IC50, please. Please, when replying, give the labels in the order that was requested.
OUT: 3, 2, 1

I. Cc1ccccc1N/C(=N\C#N)N1CCN(C(=O)Cc2ccc3ccccc3c2)C(c2ccccc2)C1 (centres undefined)
II. COc1ccc(C(=O)N2CCN(C(=Nc3cccc4ncccc34)NC#N)CC2c2ccccc2)cc1OC (centres undefined)
IN: Select one. Lower IC50: I or II State your choice using its label.
OUT: II

1. Cc1ccccc1N=C(NC#N)N1CCN(C(=O)Cc2ccc(Cl)cc2)C(c2ccccc2)C1 (centres undefined)
2. Cc1ccn(CC(=O)N2CCN(/C(=N/C#N)Nc3ccccc3C)CC2c2ccccc2)n1 (centres undefined)
3. COc1ccc(CC(=O)N2C(C)CN(C(=Nc3ccccc3C)NC#N)CC2C)cc1OC (cis isomer)
4. Cc1ccccc1N/C(=N\C#N)N1CCN(C(=O)CC23CC4CC(CC(C4)C2)C3)C(c2ccccc2)C1 (centres undefined)
5. COc1ccc(CC(=O)NC(NC(=NC#N)Nc2ccccc2C)C(C)(C)C)cc1OC (centres undefined)
IN: Write the entries in order, lowest recorded IC50 first. Lab note: record answer as labels in requested order.
OUT: 5, 1, 2, 4, 3

P. COc1ccc(CC(=O)N2CCN(C(=Nc3ccccc3C)NC#N)CC2c2ccccc2)cc1OC (stereo in doubt; 7)
Q. Cc1ccccc1N=C(NC#N)N1CCN(C(=O)Cc2ccccc2)C(c2ccccc2)C1 (centres undefined)
R. COc1ccc(CCCC(=O)N2CCN(/C(=N/C#N)Nc3ccccc3C)CC2c2ccccc2)cc1OC (centres undefined)
S. Cc1ccccc1N/C(=N\C#N)N1CCN(C(=O)Cn2nccc2C)C(c2ccccc2)C1 (centres undefined)
IN: Rank items: key IC50, increasing. // list labels; follow requested order
OUT: R, P, Q, S

1. COc1ccc(C(=O)N2CCN(C(=Nc3ccccc3C)NC#N)CC2c2ccccc2)cc1OC (centres undefined)
2. Cc1cc(CC(=O)N2CCN(C(=Nc3ccccc3C)NC#N)CC2c2ccccc2)on1 (centres undefined)
IN: Determine, for 1 and 2 , which has the greater value of IC50. Write the label of whichever entry you select.
OUT: 1
(1: 290 nM, 2: 170 nM)

From: ChEMBL document CHEMBL1143222
